Where these numbers come from: paper PMC4705659

# EXPERIMENTAL_TARGET: CacKam (Catenulispora acidiphila, UniProt C7Q5P8, E94A)
# Sequence (C7Q5P8 entry or part of it E94A): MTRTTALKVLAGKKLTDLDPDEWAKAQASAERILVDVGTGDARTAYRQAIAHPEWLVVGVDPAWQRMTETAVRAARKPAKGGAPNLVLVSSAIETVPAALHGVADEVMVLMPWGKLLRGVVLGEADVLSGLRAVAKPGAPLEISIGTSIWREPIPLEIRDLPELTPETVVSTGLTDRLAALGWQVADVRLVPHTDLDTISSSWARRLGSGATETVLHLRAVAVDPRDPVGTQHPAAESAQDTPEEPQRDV
# EXPERIMENT_SUMMARY: biochemical
PROPERTY: Kd (µM)
Write the answer as a number in µM, unit excluded.

So for C[S+](CC[C@H](N)C(=O)O)C[C@H]1O[C@@H](n2cnc3c(N)ncnc32)[C@H](O)[C@@H]1O (stereo partly shown) [SAM] , the logged Kd turned out to be 29

---

# EXPERIMENTAL_TARGET: CacKam (Catenulispora acidiphila, UniProt C7Q5P8, W203A)
# Construct: full length 250 residues, N-terminal hexahistidine tag with thrombin site kept; E. coli BL21 (DE3)
# Sequence (C7Q5P8 entry or part of it W203A): as the sequence (C7Q5P8 entry or part of it E94A) above
# EXPERIMENT_SUMMARY: biochemical
# Description: isothermal titration calorimetry on CacKam
Kd by entry:
Write the answer as a number in µM, unit excluded.

C[S+](CC[C@H](N)C(=O)O)C[C@H]1O[C@@H](n2cnc3c(N)ncnc32)[C@H](O)[C@@H]1O (some centres unmarked): 68

Lab note: next compound to report on.
So for Nc1ncnc2c1ncn2[C@@H]1O[C@H](CSCC[C@H](N)C(=O)O)[C@@H](O)[C@H]1O , the logged Kd turned out to be 5.1
